Molecular target: hu N(A2-B2)A-avi-His B (human)
Sequence (P06731 whole entry): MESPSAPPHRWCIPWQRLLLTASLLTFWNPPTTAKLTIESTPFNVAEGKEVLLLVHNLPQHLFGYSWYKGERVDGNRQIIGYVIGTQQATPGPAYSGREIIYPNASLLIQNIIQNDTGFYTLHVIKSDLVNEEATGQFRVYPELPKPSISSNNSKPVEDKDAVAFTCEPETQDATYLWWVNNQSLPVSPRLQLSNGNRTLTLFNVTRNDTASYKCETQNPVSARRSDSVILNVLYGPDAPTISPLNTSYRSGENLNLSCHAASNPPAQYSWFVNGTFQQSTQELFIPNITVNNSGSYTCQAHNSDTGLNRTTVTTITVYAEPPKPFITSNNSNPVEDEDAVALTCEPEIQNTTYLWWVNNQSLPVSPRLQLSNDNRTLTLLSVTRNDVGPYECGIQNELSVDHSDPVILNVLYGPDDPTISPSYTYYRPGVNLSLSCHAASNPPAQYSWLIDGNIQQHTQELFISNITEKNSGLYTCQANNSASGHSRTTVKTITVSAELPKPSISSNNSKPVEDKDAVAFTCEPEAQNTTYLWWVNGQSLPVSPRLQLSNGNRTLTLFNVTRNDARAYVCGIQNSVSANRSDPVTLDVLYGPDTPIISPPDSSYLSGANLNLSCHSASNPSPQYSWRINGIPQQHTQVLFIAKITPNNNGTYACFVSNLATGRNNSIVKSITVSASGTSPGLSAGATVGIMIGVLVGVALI
Assay: SPR (Biacore T200), CEA construct immobilised, Fab as analyte, 1:1 Langmuir fit
value-type: Kd (nM)
Give just the number in nM; leave the unit off.

For the binder P1AE4138 Fab derived from P1AE2167 (Fab, V domains shown) VH: EVQLLESGGGLVQPGGSLRLSCAASGFTFTDYYMNWVRQAPGKGLEWLGFIGNKANGYTTEYSASVKGRFTISRDKSKNTLYLQMNSLRAEDTATYYCTRDRGLRFYFDYWGQGTTVTVSS VL: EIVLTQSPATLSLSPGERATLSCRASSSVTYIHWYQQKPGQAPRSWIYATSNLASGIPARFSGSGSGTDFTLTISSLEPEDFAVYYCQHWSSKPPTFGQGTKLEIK , give its measured Kd value.
1.47

For the binder P1AE4135 Fab derived from P1AE2164 (Fab, V domains shown) VH: EVQLLESGGGLVQPGGSLRLSCAASGFTFTDYYMNWVRQAPGKGLEWLGFIGNKANGYTTEYSASVKGRFTISRDKSKNTLYLQMNSLRAEDTATYYCTRDRGLRFYFDYWGQGTTVTVSS VL: QTVLTQSPATLSLSPGERATLSCRASSSVTYIHWYQQKPGSSPKSWIYATSNLASGIPARFSGSGSGTDYTLTISSLEPEDFAVYYCQHWSSKPPTFGQGTKLEIK , give its measured Kd value.
1.7
